Listed binders paired with reported pKd
Biological target: T1, hPRLR.mFc (soluble dimeric human PRLR) (human)
T1 construct: dimeric PRLR construct
T1 chain: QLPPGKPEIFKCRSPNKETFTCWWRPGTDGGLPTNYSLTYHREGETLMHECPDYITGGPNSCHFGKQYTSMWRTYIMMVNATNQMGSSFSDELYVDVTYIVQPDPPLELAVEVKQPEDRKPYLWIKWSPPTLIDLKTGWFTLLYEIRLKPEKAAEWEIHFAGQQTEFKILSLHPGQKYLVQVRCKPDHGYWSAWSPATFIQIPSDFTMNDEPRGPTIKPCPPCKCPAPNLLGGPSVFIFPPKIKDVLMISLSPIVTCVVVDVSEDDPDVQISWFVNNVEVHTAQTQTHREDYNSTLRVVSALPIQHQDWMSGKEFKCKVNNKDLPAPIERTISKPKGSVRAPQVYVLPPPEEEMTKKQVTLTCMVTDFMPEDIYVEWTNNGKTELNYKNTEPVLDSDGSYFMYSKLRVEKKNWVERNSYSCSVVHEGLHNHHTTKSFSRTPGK
Assay: SPR (Biacore), antibody capture, 37 C
pKd: −log10 of the molar value.

[
  {
    "Binder": "H1H6790P (antibody, human IgG1, V domains shown, human IgG1 Fc (H1H)) VH: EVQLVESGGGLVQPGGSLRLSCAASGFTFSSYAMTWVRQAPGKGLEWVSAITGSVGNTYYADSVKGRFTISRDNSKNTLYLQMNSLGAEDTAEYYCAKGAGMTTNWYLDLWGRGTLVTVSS VL: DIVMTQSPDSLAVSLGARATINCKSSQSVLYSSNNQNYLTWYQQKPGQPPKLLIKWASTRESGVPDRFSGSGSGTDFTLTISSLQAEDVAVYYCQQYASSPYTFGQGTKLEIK",
    "pKd": 9.51
  },
  {
    "Binder": "H1H6785P (antibody, human IgG1, V domains shown, human IgG1 Fc (H1H)) VH: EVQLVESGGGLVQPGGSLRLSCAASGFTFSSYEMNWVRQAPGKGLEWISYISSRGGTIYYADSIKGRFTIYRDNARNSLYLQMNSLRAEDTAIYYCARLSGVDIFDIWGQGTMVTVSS VL: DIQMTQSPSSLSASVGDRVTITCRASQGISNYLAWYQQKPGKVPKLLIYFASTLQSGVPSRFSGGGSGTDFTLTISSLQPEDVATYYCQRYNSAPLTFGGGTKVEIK",
    "pKd": 9.59
  },
  {
    "Binder": "H1H6953N (antibody, human IgG1, V domains shown, also called H1M6953N) VH: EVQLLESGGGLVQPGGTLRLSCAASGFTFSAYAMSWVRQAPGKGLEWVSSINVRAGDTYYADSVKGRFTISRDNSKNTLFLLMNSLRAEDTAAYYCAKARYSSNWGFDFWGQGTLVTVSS VL: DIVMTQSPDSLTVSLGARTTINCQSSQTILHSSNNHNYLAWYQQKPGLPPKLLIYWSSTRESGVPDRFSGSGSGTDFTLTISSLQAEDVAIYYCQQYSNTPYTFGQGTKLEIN",
    "pKd": 9.94
  },
  {
    "Binder": "H1H6803P (antibody, human IgG1, V domains shown, human IgG1 Fc (H1H)) VH: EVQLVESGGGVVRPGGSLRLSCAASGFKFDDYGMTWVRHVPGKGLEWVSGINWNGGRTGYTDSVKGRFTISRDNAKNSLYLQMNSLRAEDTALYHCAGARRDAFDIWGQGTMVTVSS VL: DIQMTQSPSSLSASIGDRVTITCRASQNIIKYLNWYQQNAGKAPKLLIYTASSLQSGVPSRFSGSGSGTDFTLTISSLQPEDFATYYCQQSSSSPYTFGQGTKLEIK",
    "pKd": 9.34
  },
  {
    "Binder": "H1H6793P (antibody, human IgG1, V domains shown, human IgG1 Fc (H1H)) VH: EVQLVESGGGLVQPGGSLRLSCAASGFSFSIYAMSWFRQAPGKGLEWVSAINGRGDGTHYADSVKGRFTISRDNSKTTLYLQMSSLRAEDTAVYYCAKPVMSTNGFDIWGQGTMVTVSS VL: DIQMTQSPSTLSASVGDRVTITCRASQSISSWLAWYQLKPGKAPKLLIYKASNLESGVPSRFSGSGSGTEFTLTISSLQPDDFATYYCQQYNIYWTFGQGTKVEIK",
    "pKd": 9.46
  },
  {
    "Binder": "H1H6781P (antibody, human IgG1, V domains shown, human IgG1 Fc (H1H)) VH: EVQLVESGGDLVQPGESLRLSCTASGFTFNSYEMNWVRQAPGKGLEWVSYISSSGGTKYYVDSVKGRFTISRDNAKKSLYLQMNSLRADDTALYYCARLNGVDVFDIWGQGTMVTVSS VL: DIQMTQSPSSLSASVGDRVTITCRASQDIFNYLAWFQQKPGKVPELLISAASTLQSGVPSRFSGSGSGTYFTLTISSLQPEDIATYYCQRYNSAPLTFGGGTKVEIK",
    "pKd": 9.65
  },
  {
    "Binder": "H1H6765P (antibody, human IgG1, V domains shown, human IgG1 Fc (H1H)) VH: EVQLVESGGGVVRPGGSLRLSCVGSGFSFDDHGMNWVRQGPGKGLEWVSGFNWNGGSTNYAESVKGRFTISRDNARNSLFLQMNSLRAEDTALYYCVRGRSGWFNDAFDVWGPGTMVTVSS VL: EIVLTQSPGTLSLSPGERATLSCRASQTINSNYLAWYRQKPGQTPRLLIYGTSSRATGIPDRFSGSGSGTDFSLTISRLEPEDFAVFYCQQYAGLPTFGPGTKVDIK",
    "pKd": 9.89
  },
  {
    "Binder": "H1H6804P (antibody, human IgG1, V domains shown, human IgG1 Fc (H1H)) VH: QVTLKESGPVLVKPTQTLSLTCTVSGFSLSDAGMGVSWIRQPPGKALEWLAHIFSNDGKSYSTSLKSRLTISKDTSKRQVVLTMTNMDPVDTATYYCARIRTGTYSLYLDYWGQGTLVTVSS VL: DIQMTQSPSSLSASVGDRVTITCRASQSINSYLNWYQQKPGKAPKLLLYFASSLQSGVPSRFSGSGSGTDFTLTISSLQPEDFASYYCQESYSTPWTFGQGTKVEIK",
    "pKd": 9.43
  },
  {
    "Binder": "H1H6782P (antibody, human IgG1, V domains shown, human IgG1 Fc (H1H)) VH: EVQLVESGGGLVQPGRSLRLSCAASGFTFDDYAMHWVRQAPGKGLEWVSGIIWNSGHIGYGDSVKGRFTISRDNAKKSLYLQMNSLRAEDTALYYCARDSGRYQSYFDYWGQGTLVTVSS VL: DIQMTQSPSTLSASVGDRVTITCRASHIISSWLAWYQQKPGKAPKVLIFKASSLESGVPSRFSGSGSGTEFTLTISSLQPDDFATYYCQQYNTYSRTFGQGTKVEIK",
    "pKd": 9.66
  },
  {
    "Binder": "H1H6960N (antibody, human IgG1, V domains shown, also called H2M6960N) VH: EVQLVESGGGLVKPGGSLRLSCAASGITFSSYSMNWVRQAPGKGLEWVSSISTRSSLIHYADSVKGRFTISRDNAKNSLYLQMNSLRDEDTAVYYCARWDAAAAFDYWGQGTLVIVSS VL: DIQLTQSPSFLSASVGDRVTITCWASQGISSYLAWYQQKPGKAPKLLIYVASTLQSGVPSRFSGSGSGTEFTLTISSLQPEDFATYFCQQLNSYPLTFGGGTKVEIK",
    "pKd": 9.30
  }
]

Reference for the values: patent US20180185504A1
